Data credit: patent US20240174744A1

Target: T1, human iRhom2 (inactive rhomboid protein 2, isoform 1), endogenously expressed on human cells (human, UniProt Q6PJF5 1-856)
T1 sequence: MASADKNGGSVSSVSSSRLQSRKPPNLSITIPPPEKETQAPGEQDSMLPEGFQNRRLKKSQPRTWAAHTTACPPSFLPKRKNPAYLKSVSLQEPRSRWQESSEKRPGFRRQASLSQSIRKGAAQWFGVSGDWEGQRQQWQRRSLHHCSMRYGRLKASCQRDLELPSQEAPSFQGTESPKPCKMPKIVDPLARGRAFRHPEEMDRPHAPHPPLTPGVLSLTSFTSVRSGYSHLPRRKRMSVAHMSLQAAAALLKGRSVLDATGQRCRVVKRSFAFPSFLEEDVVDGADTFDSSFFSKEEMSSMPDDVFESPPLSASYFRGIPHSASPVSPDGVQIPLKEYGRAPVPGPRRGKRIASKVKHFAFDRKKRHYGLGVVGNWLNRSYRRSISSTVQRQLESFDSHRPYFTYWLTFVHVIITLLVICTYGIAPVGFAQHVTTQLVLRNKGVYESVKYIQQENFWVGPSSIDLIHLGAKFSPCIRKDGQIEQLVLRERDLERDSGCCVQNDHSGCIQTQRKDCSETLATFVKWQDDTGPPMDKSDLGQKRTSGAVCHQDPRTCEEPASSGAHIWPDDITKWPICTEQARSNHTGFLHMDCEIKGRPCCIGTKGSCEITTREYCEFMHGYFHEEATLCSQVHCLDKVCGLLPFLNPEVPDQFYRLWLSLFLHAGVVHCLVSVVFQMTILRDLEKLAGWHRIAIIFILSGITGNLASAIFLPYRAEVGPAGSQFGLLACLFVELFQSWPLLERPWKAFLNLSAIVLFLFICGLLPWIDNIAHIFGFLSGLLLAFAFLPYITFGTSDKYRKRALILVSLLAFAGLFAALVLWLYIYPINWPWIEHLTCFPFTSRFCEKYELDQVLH
Experiment: cell-based or functional assay
inhibition of PMA-induced release of IL-6R from THP-1 cells, 1 µg/ml vs 70 % inhibition: at or above is Condition met, below is Condition not met.

binder	label
antibody 42 (antibody, V domains shown, Mouse IgG, kappa light chain; also called clone #42; m42) VH: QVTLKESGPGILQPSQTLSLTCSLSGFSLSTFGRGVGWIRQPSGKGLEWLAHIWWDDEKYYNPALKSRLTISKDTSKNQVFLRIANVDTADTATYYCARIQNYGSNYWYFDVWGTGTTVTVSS VL: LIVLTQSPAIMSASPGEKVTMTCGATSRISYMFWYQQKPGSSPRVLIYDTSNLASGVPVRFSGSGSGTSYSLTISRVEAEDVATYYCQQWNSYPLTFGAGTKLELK	Condition met
antibody 43 (antibody, V domains shown, Mouse IgG, kappa light chain; also called clone #43) VH: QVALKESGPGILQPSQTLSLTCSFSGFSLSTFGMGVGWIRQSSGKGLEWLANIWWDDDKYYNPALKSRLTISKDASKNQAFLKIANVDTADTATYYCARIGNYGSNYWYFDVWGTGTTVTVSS VL: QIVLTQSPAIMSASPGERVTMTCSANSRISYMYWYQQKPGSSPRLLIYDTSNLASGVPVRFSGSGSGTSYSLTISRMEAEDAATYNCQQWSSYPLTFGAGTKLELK	Condition met
antibody 3 (antibody, V domains shown, Mouse IgG, kappa light chain; also called clone #3; purified antibody 3) VH: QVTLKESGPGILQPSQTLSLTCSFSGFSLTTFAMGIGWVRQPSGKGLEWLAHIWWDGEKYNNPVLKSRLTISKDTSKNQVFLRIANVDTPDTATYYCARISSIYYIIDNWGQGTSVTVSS VL: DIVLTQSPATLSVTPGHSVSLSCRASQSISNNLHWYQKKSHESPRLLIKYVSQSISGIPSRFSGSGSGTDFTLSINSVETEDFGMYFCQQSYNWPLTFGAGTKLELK	Condition not met
antibody 16 (antibody, V domains shown, Mouse IgG, kappa light chain; also called clone #16; m16) VH: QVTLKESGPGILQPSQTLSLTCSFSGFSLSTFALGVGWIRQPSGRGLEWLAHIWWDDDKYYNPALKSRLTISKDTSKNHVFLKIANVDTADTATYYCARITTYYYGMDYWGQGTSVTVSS VL: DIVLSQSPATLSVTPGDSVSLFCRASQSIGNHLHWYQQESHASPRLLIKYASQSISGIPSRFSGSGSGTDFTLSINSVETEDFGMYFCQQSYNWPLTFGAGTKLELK	Condition met
